Target: human sphingosine-1-phosphate receptor 1 (S1P1) (Homo sapiens, UniProt P21453)
Assay: β-Arrestin2 recruitment assay (PathHunter), S1P1 CHO-K1 cells
Assay type: cell-based
Details: β-arrestin2 recruitment, S1P1; read-out: hS1P1 B-arrestin2 pEC50 (converted)
Sequence (P21453 whole entry): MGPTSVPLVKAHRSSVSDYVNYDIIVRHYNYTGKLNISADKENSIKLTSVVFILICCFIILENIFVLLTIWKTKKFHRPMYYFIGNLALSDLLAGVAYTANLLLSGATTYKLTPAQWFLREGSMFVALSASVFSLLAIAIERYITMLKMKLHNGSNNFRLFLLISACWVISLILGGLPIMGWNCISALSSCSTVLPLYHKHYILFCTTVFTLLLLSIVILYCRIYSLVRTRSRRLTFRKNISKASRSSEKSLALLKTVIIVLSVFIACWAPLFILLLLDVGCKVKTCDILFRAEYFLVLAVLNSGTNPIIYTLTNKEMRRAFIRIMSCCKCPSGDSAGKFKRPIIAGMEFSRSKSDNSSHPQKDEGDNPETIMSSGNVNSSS
Sequence (P32121 whole entry partner): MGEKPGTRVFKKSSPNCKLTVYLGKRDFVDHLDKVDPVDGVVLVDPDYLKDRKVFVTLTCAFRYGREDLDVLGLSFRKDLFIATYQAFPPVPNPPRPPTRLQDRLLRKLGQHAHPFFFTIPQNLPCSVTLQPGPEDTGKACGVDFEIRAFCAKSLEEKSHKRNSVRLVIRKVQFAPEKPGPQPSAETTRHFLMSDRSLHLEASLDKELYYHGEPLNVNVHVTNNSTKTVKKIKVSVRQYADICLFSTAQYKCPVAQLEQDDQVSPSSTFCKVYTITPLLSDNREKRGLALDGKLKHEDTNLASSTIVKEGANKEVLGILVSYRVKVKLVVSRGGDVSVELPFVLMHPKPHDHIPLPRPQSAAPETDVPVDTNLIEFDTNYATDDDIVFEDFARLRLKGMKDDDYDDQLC
readout.kind: EC50

Summary for this compound, CC(C)(O)Cn1nnc2cc(-c3nc(-c4ccc5nonc5c4)no3)ccc21 : EC50 is > 10 µM

# EC50 (compound: CCC1(CC)CC(=O)c2cc(-c3nc(-c4cnc[nH]4)no3)ccc2O1 ) is > 10 µM

// field: EC50; key: CCC1(CC)CC(=O)c2cc(-c3nc(-c4cncc(C(N)=O)c4)no3)ccc2O1 ; value = < 10 µM

For CCC1(CC)CC(=O)c2cc(-c3nc(-c4cncc(F)c4)no3)ccc2O1 the compound record lists EC50 as < 10 µM

Lab book: EC50 of Cc1ccccc1-c1nc(-c2ccc3c(ccn3C(C)C)c2)no1 noted as < 10 µM

The value of EC50 measured for the compound CC(C)(CO)n1nnc2cc(-c3noc(-c4ccccc4Cl)n3)ccc21 turned out to be < 10 µM

Data point: CC(C)n1ccc2cc(-c3noc(-c4ccccc4Br)n3)ccc21 ; EC50 = < 10 µM

get_value(item= CC(C)n1nnc2cc(-c3cc(-c4ccccc4)n(C)c3)ccc21 , readout=EC50) returns < 10 µM

The measured EC50 associated with N#Cc1cc(-c2nnc(-c3ccc4c(c3)CCC(=O)N4)o2)ccc1NCC1CC1 reads < 10 µM

The compound listed as Cc1cnccc1-c1noc(-c2ccc3c(c2)nnn3CC(C)(C)O)n1 shows EC50 equal to < 10 µM

Kindly note the recorded EC50 for CCC1(CC)CC(=O)c2cc(-c3nc(-c4ccc5ncccc5c4)no3)ccc2O1 , which is > 10 µM

The compound N#Cc1cc(-c2nc(-c3ccc4c(c3)CCC(=O)N4)no2)ccc1NCC(F)(F)F showed EC50 equal to < 10 µM

// CCC1(CC)CC(=O)c2cc(-c3nc(-c4cccnc4F)no3)ccc2O1 : EC50 value = < 10 µM

Form: compound = CCC1(CC)CC(=O)c2cc(-c3nc(-c4cncc(C(F)(F)F)c4)no3)ccc2O1 ; EC50 = < 10 µM

Sure, the documented EC50 for CC(C)Nc1ccc(-c2nnc(-c3ccc4c(c3)CCC(=O)N4)o2)cc1C#N is < 10 µM

In plain terms, COc1ccc2oc(-c3ccc4c(c3)nnn4C(C)C)nc2c1 has a documented EC50 of < 10 µM

CCC1(CC)C/C(=N\O)c2cc(-c3nc(-c4cccnc4)no3)ccc2O1 has a reported EC50 of > 10 µM

So, CCC1(CC)CC(=O)c2cc(-c3nc(-c4ccc5c(c4)CC(=O)N5)no3)ccc2O1 ? Its EC50 was < 10 µM

Given item CC1(C)Oc2ccc(-c3nc(-c4cccnc4)no3)cc2C1=O , the value recorded as its EC50 is < 10 µM

Reported EC50 of COCC1(COC)CC(=O)c2cc(-c3nc(-c4ccncc4)no3)ccc2O1 : < 10 µM

Documented EC50 of COc1ccccc1-c1noc(-c2ccc3c(c2)ncn3C(C)C)n1 : > 10 µM

get_value(item= CC(C)Nc1ccc(-c2nc(-c3ccc4c(c3)C(=O)NCC4)no2)cc1C#N , readout=EC50) returns < 10 µM

EC50 recorded for this compound, CC(C)n1nnc2cc(-c3noc(-c4cccc5c4CCC5O)n3)ccc21 (stereo not shown) , is < 10 µM

According to the records, this compound O=C1CCc2cc(-c3nc(-c4cccnc4)no3)ccc2N1 displays EC50 of > 10 µM

Please fill in: EC50 reported for CCC1(CC)CC(=O)c2cc(-c3nc(-c4ccc5c(c4)CCC(=O)N5)no3)ccc2O1 = > 10 µM

// CC(C)Nc1ccc(-c2nc(-c3ccc4oc(=O)[nH]c4c3)no2)cc1C#N : EC50 value = < 10 µM

Given item CCC1CC(=O)c2ccc(-c3nc(-c4cccnc4)no3)cc2O1 (stereo not shown) , the value recorded as its EC50 is > 10 µM

EC50 in this record for CCC1(CC)CC(=O)c2cc(-c3ncc(-c4cccnc4)cn3)ccc2O1 : > 10 µM

Just so you know, measured EC50 for CC(C)n1nnc2cc(-c3nc(-c4ccc5nonc5c4)no3)ccc21 came out at > 10 µM

Sample CC(C)n1ccc2cc(-c3noc(-c4ccc(F)cc4)n3)ccc21 ; EC50 observed: > 10 µM

The measured EC50 associated with N#Cc1cc(-c2nc(-c3ccc4c(c3)NC(=O)C4)no2)ccc1NCC1CC1 reads < 10 µM

* * *

Target: human sphingosine-1-phosphate receptor 1 (S1P1) (Homo sapiens, UniProt P21453)
Assay: Inhibition of cAMP production (HTRF cAMP HiRange), S1P1 CHO-K1 cells
Assay type: cell-based
Conditions: CHO-K1; efficacy normalized to maximum efficacy of fingolimod; read-out: hS1P1 CAMP SPAN
Sequence (P21453 whole entry): as the sequence (P21453 whole entry) above
readout.kind: Emax

Input CC(C)Oc1ccc(-c2ncc(-c3ccc4c(c3)nnn4C(C)C)cn2)cc1C#N . Output Emax: > 75%

GET /value?item= COc1ccccc1-c1noc(-c2ccc3c(ccn3C(C)C)c2)n1 &field=Emax returns > 75%

Given item CCC1(CC)C/C(=N/O)c2cc(-c3nc(-c4cccnc4)no3)ccc2O1 , the value recorded as its Emax is > 75%

Emax for CC(C)n1ccc2cc(-c3noc(-c4cccnc4)n3)ccc21 is < 75%

Sample CCC1(CC)CC(=O)c2cc(-c3nc(-c4cncc(NC(C)=O)c4)no3)ccc2O1 ; Emax observed: < 75%

Looking up COc1ccccc1-c1nc(-c2ccc3c(ccn3C(C)C)c2)no1 , I see its Emax listed as > 75%

Notebook: O=C1CNc2ccc(-c3nc(-c4cccnc4)no3)cc2N1 , Emax read as > 75%

Looking up CCC1(CC)CC(=O)c2cc(-c3ncc(-c4ccccn4)cn3)ccc2O1 , I found its Emax recorded as > 75%

Kindly note the recorded Emax for CCC1(CC)CC(=O)c2cc(-c3nc(-c4cccs4)no3)ccc2O1 , which is > 75%

For record CC(C)(CO)Cn1nnc2cc(-c3noc(-c4ccccc4Cl)n3)ccc21 the listed Emax is > 75%

According to the records, this molecule CCC1(CC)CC(=O)c2cc(-c3nc(-c4cnc[nH]4)no3)ccc2O1 displays Emax of > 75%

Sample COc1cccc(-c2csc(-c3ccc4c(ccn4C(C)C)n3)n2)c1 ; Emax observed: < 75%

For reference, reported Emax for CCC1(CC)CC(=O)c2cc(-c3nc(-c4ccc(NS(C)(=O)=O)cc4OC)no3)ccc2O1 stands at > 75%

// field: Emax; key: CC(C)n1ccc2cc(-c3nc(-c4ccccc4F)cs3)cnc21 ; value = < 75%

Looking up CCC1(CC)CC(=O)c2cc(-c3nc(-c4ccc5ncoc5c4)no3)ccc2O1 , I found its Emax recorded as > 75%

// field: Emax; key: Cc1cccc2oc(-c3ccc4c(c3)nnn4CC(C)C)nc12 ; value = > 75%

Entry O=C1CC(CO)(CO)Oc2ccc(-c3nc(-c4cccnc4)no3)cc21 ; Emax = < 75%

Emax measured on COc1cc(NC(C)=O)ccc1-c1nc(-c2ccncc2)no1 = > 75%

Documented Emax of CC(C)(CO)n1nnc2cc(-c3noc(-c4ccc5nc[nH]c5c4)n3)ccc21 : < 75%

The recorded Emax for CC(C)(CO)Cn1nnc2cc(-c3noc(-c4ccncc4C(F)(F)F)n3)ccc21 is > 75%

The recorded Emax for entry CCC1(CC)CC(=O)c2cc(-c3nc(-c4cccnc4C)no3)ccc2O1 equals > 75%

get_value(item= Cn1cnc2ccc(-c3nnc(-c4ccc(NCC(F)(F)CO)c(C#N)c4)o3)cc21 , readout=Emax) returns < 75%

Just so you know, measured Emax for N#Cc1cc(-c2nnc(-c3ccc4c(c3)ncn4CCO)o2)ccc1NCC(F)F came out at > 75%

Emax reading for COc1ccccc1-c1csc(-c2cnc3c(ccn3C(C)C)c2)n1 : < 75%

// sample N#Cc1cc(-c2nnc(-c3ccc4c(c3)CCC(=O)N4)o2)ccc1NCC1CC1 , its Emax was > 75%

The reported value for CCC1(CC)CC(=O)c2cc(-c3nc(-c4ccnc(C(=O)NC)c4)no3)ccc2O1 in terms of Emax is < 75%

* * *

Can you tell me Emax for the items I'm about to list?
Target: human sphingosine-1-phosphate receptor 1 (S1P1) (Homo sapiens)
Assay: Inhibition of cAMP production (HTRF cAMP HiRange), S1P1 CHO-K1 cells
Type: cell-based
Conditions: CHO-K1; inhibition of cAMP production; efficacy normalized to maximum efficacy of fingolimod; read-out: hS1P1 CAMP SPAN

// recorded Emax for COc1ccccc1-c1noc(-c2ccc3[nH]cnc3c2)n1 [Compound 369] : < 75%

Just so you know, measured Emax for COc1ccc(-c2nc(-c3cccc4[nH]ccc34)ns2)cc1 [Compound 361] came out at < 75%

Field Emax (entry Cc1cncc(-c2nc(-c3ccc4c(c3)nnn4C(C)C)no2)n1 [Compound 229] ) reads < 75%

So, COc1ccccc1-c1noc(-c2ccc3c(cnn3C(C)C)c2)n1 [Compound 370] ? Its Emax was > 75%

compound CCC1(CC)CC(=O)c2cc(-c3nc(-c4cccc(O)c4)no3)ccc2O1 [Compound 227] , Emax observed: < 75%

// recorded Emax for Fc1cc(-c2noc(-c3ccc4c(c3)nnn4C3CCCC3)n2)ccc1C(F)(F)F [Compound 1] : < 75%

Form: compound = CCCn1nnc2cc(-c3nc(-c4ccccc4)no3)ccc21 [Compound 160] ; Emax = < 75%

Value of Emax reported for the compound CC(F)(F)CNc1ccc(-c2nnc(-c3ccc4[nH]ncc4c3)o2)cc1C#N [Compound 355] is > 75%

Per the records, this compound ( CC(C)n1nnc2cc(-c3nc(-c4ccc(-c5ccccc5)cn4)no3)ccc21 [Compound 9] ) has Emax equal to < 75%

# compound C=CCNc1ccc(-c2nc(-c3ccc4[nH]c(=O)oc4c3)no2)cc1C#N [Compound 189] ; its Emax = > 75%

Cc1ccsc1-c1noc(-c2ccc3c(c2)nnn3C2CCCC2)n1 [Compound 46] yielded Emax of > 75%

The compound identified as CC(C)Oc1ccc(-c2noc(-c3ccc4c(c3)nnn4C(C)C)n2)cc1C(F)(F)F [Compound 20] registered its Emax at > 75%

The recorded Emax for entry Brc1ccccc1-c1nc(-c2ccc3c(c2)nnn3Cc2ccccc2)no1 [Compound 52] equals < 75%

Emax reading for CC(C)n1nnc2cc(-c3nc(-c4cncnc4)no3)ccc21 [Compound 249] : > 75%

Entry under test: CC(C)n1nnc2cc(-c3nc(-c4cccc5c4OCO5)no3)ccc21 [Compound 32] . Its Emax was > 75%

Entry COc1ccccc1-c1nnc(-c2ccc3c(c2)nnn3C(C)C)s1 [Compound 144] — recorded Emax = > 75%

Given item CCC1(CC)CC(=O)c2cc(-c3nc(-c4ccc(C)s4)no3)ccc2O1 [Compound 34] , the value recorded as its Emax is > 75%

The compound listed as Cc1ccccc1-c1nc(-c2ccc3c(c2)nnn3C2CCCC2)no1 [Compound 162] has a reported Emax of > 75%

Given item CC(C)n1nnc2cc(-c3nc(-c4ccc(COc5ccccc5)cc4)no3)ccc21 [Compound 49] , the value recorded as its Emax is < 75%

For this compound ( C=CCNc1ccc(-c2nc(-c3ccc4sc(N)nc4c3)no2)cc1C#N [Compound 267] ), measured Emax is < 75%

Memo: CCCn1nnc2cc(-c3nc(-c4cccc(C)c4)no3)ccc21 [Compound 54] , reported Emax: < 75%

O=C1CCOc2ccc(-c3nc(-c4ccncc4)no3)cc21 [Compound 57] yielded Emax of < 75%

# Emax of Cc1cncc(-c2nc(-c3ccc4c(c3)nnn4C(C)C)no2)c1 [Compound 159] = < 75%

The compound listed as Oc1ccc(-c2noc(-c3ccc4c(c3)nnn4C3CCCC3)n2)cc1 [Compound 13] has a reported Emax of < 75%

Form field Emax, entry CC(C)Cn1nnc2cc(-c3nc(-c4ccccc4Cl)no3)ccc21 [Compound 289] : < 75%

So for CC(C)n1nnc2cc(-c3nc(-c4ccccc4O)no3)ccc21 [Compound 180] , the logged Emax turned out to be > 75%

Summary for this compound, CCC1(CC)CC(=O)c2cc(-c3nsc(-c4ccccc4OC)n3)ccc2O1 [Compound 222] : Emax is > 75%

Data point: Cc1cccc(-c2noc(-c3ccc4c(c3)nnn4C3CCCCC3)n2)c1 [Compound 11] ; Emax = < 75%

Per the record, CCC1(CC)CC(=O)c2cc(-c3nc(-c4ccccc4OC)no3)ccc2O1 [Compound 268] has Emax of > 75%

Form field Emax, entry CC(C)Oc1ccc(-c2nc(-c3ccc4c(c3)nnn4C(C)C)no2)cc1C(F)(F)F [Compound 246] : > 75%
